- Tested on: A549
- experiment_description: relative viability (nuclei count vs DMSO), 5 days (fraction); higher = more cells survive
- condition_context: first compound 8 µM
# maps each entry to its relative viability

molecule | relative viability
Nc1cccc2c1CN(C1CCC(=O)NC1=O)C2=O (configuration not stated) [Lenalidomide] + COc1cc2c(Oc3ccc(NC(=O)C4(C(=O)Nc5ccc(F)cc5)CC4)cc3F)ccnc2cc1OCCCN1CCOCC1 [Foretinib] (partner 0.25 µM) | 0.897
Nc1cccc2c1CN(C1CCC(=O)NC1=O)C2=O (configuration not stated) [Lenalidomide] + O=C(c1cc(Cc2n[nH]c(=O)c3ccccc23)ccc1F)N1CCN(C(=O)C2CC2)CC1 [Olaparib] (partner 8 µM) | 0.228
Nc1cccc2c1CN(C1CCC(=O)NC1=O)C2=O (configuration not stated) [Lenalidomide] + C[C@@H](Oc1cc(-c2cnn(C3CCNCC3)c2)cnc1N)c1c(Cl)ccc(F)c1Cl [Crizotinib] (partner 1 µM) | 0.902
Nc1cccc2c1CN(C1CCC(=O)NC1=O)C2=O (configuration not stated) [Lenalidomide] + C[C@]1(O)C[C@@H](c2nc(-c3ccc4ccc(-c5ccccc5)nc4c3)c3c(N)nccn32)C1 [Linsitinib] (partner 1 µM) | 0.368
Nc1cccc2c1CN(C1CCC(=O)NC1=O)C2=O (configuration not stated) [Lenalidomide] + Nc1ncn([C@H]2C[C@H](O)[C@@H](CO)O2)c(=O)n1 [Decitabine] (partner 2 µM) | 0.269
Nc1cccc2c1CN(C1CCC(=O)NC1=O)C2=O (configuration not stated) [Lenalidomide] + N=C(N)NC(=N)NCCc1ccccc1 [Phenformin] (partner 250 µM) | 0.208
Nc1cccc2c1CN(C1CCC(=O)NC1=O)C2=O (configuration not stated) [Lenalidomide] + CS(=O)(=O)CCNCc1ccc(-c2ccc3ncnc(Nc4ccc(OCc5cccc(F)c5)c(Cl)c4)c3c2)o1 [Lapatinib] (partner 2 µM) | 1.02

* * *

# maps each entry to its relative viability
- Test system: SK-LU-1
- experiment_description: relative viability (nuclei count vs DMSO), 5 days (fraction); higher = more cells survive
- condition_context: first compound 0.2 µM
quantity: relative viability

compound | result_value
CCNC(=O)c1noc(-c2cc(C(C)C)c(O)cc2O)c1-c1ccc(CN2CCOCC2)cc1 [Luminespib] + CS(=O)(=O)N1CCN(Cc2cc3nc(-c4cccc5[nH]ncc45)nc(N4CCOCC4)c3s2)CC1 [Pictilisib] (partner 1 µM) | 0.121
CN1CCN(CCOc2cc(OC3CCOCC3)c3c(Nc4c(Cl)ccc5c4OCO5)ncnc3c2)CC1 [Saracatinib] + Cc1nc(NC(=O)N2CCC[C@H]2C(N)=O)sc1-c1ccnc(C(C)(C)C(F)(F)F)c1 [Alpelisib] (partner 2 µM) | 0.673
CCNC(=O)c1noc(-c2cc(C(C)C)c(O)cc2O)c1-c1ccc(CN2CCOCC2)cc1 [Luminespib] + CC(=O)Nc1cccc(-n2c(=O)n(C3CC3)c(=O)c3c(Nc4ccc(I)cc4F)n(C)c(=O)c(C)c32)c1 [Trametinib] (partner 0.02 µM) | 0.185

* * *

- Tested on: EMC-BAC-2
- experiment_description: relative viability (nuclei count vs DMSO), 5 days (fraction); higher = more cells survive
- condition_context: first compound 2 µM
# maps each entry to its relative viability
quantity: relative viability

molecule | result_value
CN1CCN(CCOc2cc(OC3CCOCC3)c3c(Nc4c(Cl)ccc5c4OCO5)ncnc3c2)CC1 [Saracatinib] + Cc1nc(Nc2ncc(C(=O)Nc3c(C)cccc3Cl)s2)cc(N2CCN(CCO)CC2)n1 [Dasatinib] (partner 0.075 µM) | 0.294
Cc1csc(=NC2CCCCC2)n1/N=C/c1ccc(O)c(O)c1O [MIM1] + NC(=O)Nc1cc(-c2cccc(F)c2)sc1C(=O)N[C@H]1CCCNC1 [AZD7762] (partner 0.2 µM) | 1.09
CN1CCN(CCOc2cc(OC3CCOCC3)c3c(Nc4c(Cl)ccc5c4OCO5)ncnc3c2)CC1 [Saracatinib] + Nc1nc2[nH]cc(CCc3ccc(C(=O)N[C@@H](CCC(=O)O)C(=O)O)cc3)c2c(=O)[nH]1 [Pemetrexed] (partner 0.2 µM) | 0.442
Cc1csc(=NC2CCCCC2)n1/N=C/c1ccc(O)c(O)c1O [MIM1] + Nc1nc2[nH]cc(CCc3ccc(C(=O)N[C@@H](CCC(=O)O)C(=O)O)cc3)c2c(=O)[nH]1 [Pemetrexed] (partner 0.2 µM) | 0.432
CN1CCN(CCOc2cc(OC3CCOCC3)c3c(Nc4c(Cl)ccc5c4OCO5)ncnc3c2)CC1 [Saracatinib] + Nc1ncn([C@H]2C[C@H](O)[C@@H](CO)O2)c(=O)n1 [Decitabine] (partner 2 µM) | 0.91
CN1CCN(CCOc2cc(OC3CCOCC3)c3c(Nc4c(Cl)ccc5c4OCO5)ncnc3c2)CC1 [Saracatinib] + CS(=O)(=O)N1CCN(Cc2cc3nc(-c4cccc5[nH]ncc45)nc(N4CCOCC4)c3s2)CC1 [Pictilisib] (partner 1 µM) | 0.34
Cc1csc(=NC2CCCCC2)n1/N=C/c1ccc(O)c(O)c1O [MIM1] + CS(=O)(=O)CCNCc1ccc(-c2ccc3ncnc(Nc4ccc(OCc5cccc(F)c5)c(Cl)c4)c3c2)o1 [Lapatinib] (partner 2 µM) | 0.869
Cc1csc(=NC2CCCCC2)n1/N=C/c1ccc(O)c(O)c1O [MIM1] + C[C@@H](Oc1cc(-c2cnn(C3CCNCC3)c2)cnc1N)c1c(Cl)ccc(F)c1Cl [Crizotinib] (partner 1 µM) | 0.784
CN1CCN(CCOc2cc(OC3CCOCC3)c3c(Nc4c(Cl)ccc5c4OCO5)ncnc3c2)CC1 [Saracatinib] + O=C(c1cc(Cc2n[nH]c(=O)c3ccccc23)ccc1F)N1CCN(C(=O)C2CC2)CC1 [Olaparib] (partner 8 µM) | 0.474
Cc1csc(=NC2CCCCC2)n1/N=C/c1ccc(O)c(O)c1O [MIM1] + O=C(CCCCCCC(=O)Nc1ccccc1)NO [Vorinostat] (partner 1 µM) | 0.404
CN1CCN(CCOc2cc(OC3CCOCC3)c3c(Nc4c(Cl)ccc5c4OCO5)ncnc3c2)CC1 [Saracatinib] + N=C(N)NC(=N)NCCc1ccccc1 [Phenformin] (partner 250 µM) | 0.35
